molecular target: KRas^G12V (Homo sapiens, UniProt P01116, G12V); construct: Biotinylated KRas (corresponding to amino acids 1-169, produced at Accelegan Inc.); biotin (biotinylated); purchased Accelegan Inc; test: KRas binding assay (TR-FRET tracer displacement), KRas G12V
Sequence (P01116 1-169 isoform P01116-2 G12V): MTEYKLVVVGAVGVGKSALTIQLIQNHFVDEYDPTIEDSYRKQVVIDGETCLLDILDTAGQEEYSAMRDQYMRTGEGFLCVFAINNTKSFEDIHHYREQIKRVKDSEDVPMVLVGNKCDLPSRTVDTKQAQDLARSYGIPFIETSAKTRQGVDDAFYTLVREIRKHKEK
Entries and their IC50 values follow.
Report only the number, with the unit nM understood.

For orientation, consider the following solved cases.
| COMPOUND | IC50 [nM] |
| --- | --- |
| CCc1c(F)ccc2cc(O)cc(-c3ncc4c(N5CCn6ncc(C#N)c6C5)nc(OC[C@@]56CCCN5C[C@H](F)C6)nc4c3F)c12 | 310 |
| CCc1c(F)ccc2cc(O)cc(-c3ncc4c(N5CCC[C@@](C)(O)C5)nc(OCC5(CN(C)C)CC5(C)C)nc4c3F)c12 (stereo partly drawn) | 5 |
| CCc1c(F)ccc2cc(O)cc(-c3ncc4c(N5CCCc6nnncc6C5)nc(OC[C@@]56CCCN5C[C@H](F)C6)nc4c3F)c12 | 6 |
| Oc1cc2ccccc2c(-c2ncc3c(N4C[C@@H]5C[C@H](C4)[C@H](O)C5)nc(OC[C@@]45CCCN4C[C@H](F)C5)nc3c2F)c1Cl | 83 |
| Oc1cc(-c2ncc3c(N4C[C@@H]5C[C@H](C4)[C@H](O)C5)nc(OC[C@@]45CCCN4C[C@H](F)C5)nc3c2F)c2ccccc2c1Br | 727 |

Prompt: I'm curious: which IC50 was measured for CCc1c(F)ccc2cc(O)cc(-c3ncc4c(N5C[C@H]6C[C@@H](C5)C(O)C6O)nc(OC[C@@]56CCCN5C[C@H](F)C6)nc4c3F)c12 (single isomer, unassigned) tested on KRas^G12V (Homo sapiens, UniProt P01116, G12V)?
Response: 3

Prompt: I'm curious: which IC50 was measured for CCc1c(F)ccc2cc(O)cc(-c3ncc4c(N5CCCC(N6CCCCS6(=O)=O)C5)nc(OC[C@@]56CCCN5C[C@H](F)C6)nc4c3F)c12 (stereo partly drawn) tested on KRas^G12V (Homo sapiens, UniProt P01116, G12V)?
Response: 6

Prompt: GET /values?readout=IC50&system=KRas^G12V (Homo sapiens, UniProt P01116, G12V)&item= `CCc1c(F)ccc2cc3[nH]ncc3c(-c3ncc4c(N5CCC[C@@](C)(O)C5)nc(OC[C@@]56CCCN5C[C@H](F)C6)nc4c3F)c12`
Response: 2

* * *

Reported IC50 values follow for various compounds
target: KRas^G12R (Homo sapiens, UniProt P01116, G12R); construct: Biotinylated KRas (corresponding to amino acids 1-169, produced at Accelegan Inc.); biotin (biotinylated); purchased Accelegan Inc; assay: KRas binding assay (TR-FRET tracer displacement), KRas G12R
Sequence (P01116 1-169 isoform P01116-2 G12R): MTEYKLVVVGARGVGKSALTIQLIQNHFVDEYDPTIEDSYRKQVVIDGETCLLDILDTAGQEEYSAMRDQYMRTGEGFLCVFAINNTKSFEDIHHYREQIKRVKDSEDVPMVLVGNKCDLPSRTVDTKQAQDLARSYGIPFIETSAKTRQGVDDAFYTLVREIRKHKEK
Numeric only. Scale: nM

Study these solved cases before continuing.
| COMPOUND | MEASURED_ON | IC50 / nM |
| --- | --- | --- |
| CCc1c(F)ccc2cc(O)cc(-c3ncc4c(NCc5cc(C(=O)N(C)C)n([C@H]6C[C@H](O)C6)n5)nc(OC[C@@]56CCCN5C[C@H](F)C6)nc4c3F)c12 [Example 680] | KRas^G12R (Homo sapiens, UniProt P01116, G12R) | 234 |
| CCc1c(F)ccc2cc(O)cc(-c3ncc4c(N5CCC[C@@](C)(O)C5)nc(OCC5(CN(C)C)CC5CO)nc4c3F)c12 (stereo partly drawn) [Example 813] | KRas^G12R (Homo sapiens, UniProt P01116, G12R) | 4 |
| CCc1c(F)ccc2cc(O)cc(-c3ncc4c(N5CCCC6(C5)CN(S(C)(=O)=O)C6)nc(OC[C@@]56CCCN5C[C@H](F)C6)nc4c3F)c12 [Example 654] | KRas^G12R (Homo sapiens, UniProt P01116, G12R) | 18 |
| CCc1c(F)ccc2cc(O)cc(-c3ncc4c(N5CC6(C)CC(CO)(C5)C6)nc(OC[C@@]56CCCN5C[C@H](F)C6)nc4c3F)c12 [Example 565] | KRas^G12R (Homo sapiens, UniProt P01116, G12R) | 1030 |
| Cc1cc2[nH]nnc2c(-c2ncc3c(N4CCOC[C@@](C)(O)C4)nc(OCC45CCCN4CCC5)nc3c2F)c1C [Example 822] | KRas^G12R (Homo sapiens, UniProt P01116, G12R) | 9670 |

Prompt: Can you look up the measured IC50 of O=C1NS(=O)(=O)NC12CCCN(c1nc(OC[C@@]34CCCN3C[C@H](F)C4)nc3c(F)c(-c4cc(O)cc5ccc(F)c(Cl)c45)ncc13)C2 (stereo partly drawn) [Example 816] for me?
Response: 3
